# System Name: human adrenergic B2 receptor (Homo sapiens, UniProt P07550)
# Sequence (P07550 whole entry): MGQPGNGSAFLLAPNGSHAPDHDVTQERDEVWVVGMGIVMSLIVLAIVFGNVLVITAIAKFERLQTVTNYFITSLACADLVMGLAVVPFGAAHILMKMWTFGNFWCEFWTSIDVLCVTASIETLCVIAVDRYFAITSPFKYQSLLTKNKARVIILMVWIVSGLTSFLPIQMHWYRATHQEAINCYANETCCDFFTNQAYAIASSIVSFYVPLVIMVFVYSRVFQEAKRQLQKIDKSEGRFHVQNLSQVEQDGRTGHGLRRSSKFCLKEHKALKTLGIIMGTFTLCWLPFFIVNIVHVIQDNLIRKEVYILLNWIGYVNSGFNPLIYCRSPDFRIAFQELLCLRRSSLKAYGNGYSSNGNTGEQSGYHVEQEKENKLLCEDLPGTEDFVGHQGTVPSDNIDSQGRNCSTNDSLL
# Test Name: Whole cell luciferase reporter assay in CHO cells expressing the hB2 receptor (agonist potency)
# Settings: 4 h incubation, read-out: EC50 - beta2
# From the text: Functional Assessment of Agonist Potency and Efficacy Using a Whole Cell Luciferase Reporter Assay in CHO Cells Expressing the hB2 Receptor. […]
Counter-ions that a name gives are not always drawn.
Measurement Kind: EC50 (nM)
Your answer is read as nM, so omit the unit and give the number.

Sample answers from the record:
Data request: Fill: EC50 (human adrenergic B2 receptor (Homo sapiens, UniProt P07550)) for this molecule CC(C)N(CC[C@H](c1ccccc1)c1cc(CCOc2ccc(CCNC[C@H](O)c3ccc(O)c(NS(C)(=O)=O)c3)cc2)ccc1O)C(C)C [Example 19, succinate salt]
Data returned: 0.2

Data request: Provide EC50, recorded with human adrenergic B2 receptor (Homo sapiens, UniProt P07550), of CC(C)N(CC[C@H](c1ccccc1)c1cc(CCOc2ccc(CCNC[C@H](O)c3ccc(O)c(NC=O)c3)cc2)ccc1O)C(C)C [Example 13]
Data returned: 0.078

Data request: Fill: EC50 (human adrenergic B2 receptor (Homo sapiens, UniProt P07550)) for this molecule CC(C)N(CC[C@H](c1ccccc1)c1cc(CCOc2cccc(CCNC[C@H](O)c3ccc(O)c(NS(C)(=O)=O)c3)c2)ccc1O)C(C)C [Example 10]
Data returned: 0.26

Others:
Data request: Provide measured EC50 on human adrenergic B2 receptor (Homo sapiens, UniProt P07550) for CC(C)N(CC[C@H](c1ccccc1)c1cc(CCOc2ccc(CCNC[C@H](O)c3ccc(O)c4[nH]c(=O)ccc34)cc2)ccc1O)C(C)C [Example 14] please.
Data returned: 0.054

Data request: Provide measured EC50 on human adrenergic B2 receptor (Homo sapiens, UniProt P07550) for CC(C)N(CC[C@H](c1ccccc1)c1cc(CCCCCCCCNC[C@H](O)c2ccc(O)c(NS(C)(=O)=O)c2)ccc1O)C(C)C [Example 16] please.
Data returned: 1.3

Data request: Look up and report measured EC50 (human adrenergic B2 receptor (Homo sapiens, UniProt P07550)) for the following molecule: CC(C)N(CC[C@H](c1ccccc1)c1cc(OCCCCCCCNC[C@H](O)c2ccc(O)c(NS(C)(=O)=O)c2)ccc1O)C(C)C [Example 4]
Data returned: 1.3

Data request: Give EC50; test system human adrenergic B2 receptor (Homo sapiens, UniProt P07550); molecule CC(C)N(CC[C@H](c1ccccc1)c1cc(CCCCCOc2ccc(CCNC[C@H](O)c3ccc(O)c(NS(C)(=O)=O)c3)cc2)ccc1O)C(C)C [Example 17]
Data returned: 0.57

###

Recorded measurements of EC50, one per entry
# System Name: human adrenergic B2 receptor (Homo sapiens, UniProt P07550)
# Test Name: Whole cell luciferase reporter assay in CHO cells expressing the hB2 receptor (agonist potency)
# Settings: 4 h incubation, read-out: EC50 - beta2

Data request: Fill in EC50 for CC(C)N(CC[C@H](c1ccccc1)c1cc(CCCCOCCCCCCNC[C@H](O)c2ccc(O)c(NS(C)(=O)=O)c2)ccc1O)C(C)C [Example 6] tested with human adrenergic B2 receptor (Homo sapiens, UniProt P07550).
Data returned: 0.19 nM

Data request: Determine reported EC50 for CC(C)N(CC[C@H](c1ccccc1)c1cc(CCOc2ccc(CCNC[C@H](O)c3ccc(O)c(CO)c3)cc2)ccc1O)C(C)C [Example 15] ; test system: human adrenergic B2 receptor (Homo sapiens, UniProt P07550).
Data returned: 0.25 nM

Then there is this molecule:
Data request: Please look at CC(C)N(CC[C@H](c1ccccc1)c1cc(CCCCOc2ccc(CCNC[C@H](O)c3ccc(O)c4[nH]c(=O)ccc34)cc2)ccc1O)C(C)C [Example 8] and tell me its recorded EC50 on human adrenergic B2 receptor (Homo sapiens, UniProt P07550).
Data returned: 0.035 nM

###

# System Name: human adrenergic B2 receptor (Homo sapiens)
# Test Name: Whole cell luciferase reporter assay in CHO cells expressing the hB2 receptor (agonist potency)
# Settings: 4 h incubation, read-out: EC50 - beta2
# Excerpt: Functional Assessment of Agonist Potency and Efficacy Using a Whole Cell Luciferase Reporter Assay in CHO Cells Expressing the hB2 Receptor. […]
We begin with a simple list: items and their reported EC50.
API: value field is a number in nM; no unit string.

Data request: Provide one value: measured EC50 of `CC(C)N(CC[C@H](c1ccccc1)c1cc(CCCCOc2ccc(CCNC[C@H](O)c3cc(O)cc(O)c3)cc2)ccc1O)C(C)C`
Data returned: 4.8

Data request: Supply recorded EC50 for `CC(C)N(CC[C@H](c1ccccc1)c1cc(CCCCCCCCCCNC[C@H](O)c2ccc(O)c(NS(C)(=O)=O)c2)ccc1O)C(C)C` here.
Data returned: 0.88

Next compound, EC50 to be filled in.
Data request: Answer with the recorded EC50 for the compound listed here: `CC(C)N(CC[C@H](c1ccccc1)c1cc(CCCCOc2ccc(CCNC[C@H](O)c3ccc(O)c(NS(C)(=O)=O)c3)cc2)ccc1O)C(C)C`
Data returned: 0.14

###

# System Name: human muscarinic M3 receptor (Homo sapiens, UniProt P20309)
# Sequence (P20309 whole entry): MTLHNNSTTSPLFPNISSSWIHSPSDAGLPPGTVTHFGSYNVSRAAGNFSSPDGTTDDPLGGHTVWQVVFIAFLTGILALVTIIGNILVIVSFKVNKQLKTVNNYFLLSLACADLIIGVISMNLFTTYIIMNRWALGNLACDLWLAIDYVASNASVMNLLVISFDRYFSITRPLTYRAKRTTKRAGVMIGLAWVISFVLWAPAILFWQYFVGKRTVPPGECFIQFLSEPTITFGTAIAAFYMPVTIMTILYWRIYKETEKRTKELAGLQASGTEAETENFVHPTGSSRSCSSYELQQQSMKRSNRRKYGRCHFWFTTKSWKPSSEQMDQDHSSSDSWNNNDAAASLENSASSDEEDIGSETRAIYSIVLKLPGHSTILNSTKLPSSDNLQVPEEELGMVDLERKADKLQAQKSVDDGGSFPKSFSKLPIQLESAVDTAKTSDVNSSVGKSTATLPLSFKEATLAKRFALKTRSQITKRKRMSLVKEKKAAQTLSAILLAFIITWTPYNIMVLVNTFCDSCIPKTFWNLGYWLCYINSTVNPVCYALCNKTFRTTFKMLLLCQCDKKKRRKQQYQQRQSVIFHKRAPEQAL
# Test Name: Whole cell β-lactamase reporter assay in CHO cells expressing the hM3 receptor (antagonist activity)
# Settings: 80 nM carbamyl choline, IC50 converted to Ki by Cheng-Prusoff
Quick list: pKi per entry.
Note on units: pKi is unitless, being -log10 of a concentration expressed in mol/L.

Recorded pKi, per entry:
Data request: Answer with the recorded pKi of CC(C)N(CC[C@H](c1ccccc1)c1cc(CCOc2cccc(CCNC[C@H](O)c3ccc(O)c(CO)c3)c2)ccc1O)C(C)C [Example 11] only.
Data returned: 8.82

Data request: Recall and state the measured pKi for CC(C)N(CC[C@H](c1ccccc1)c1cc(CCOc2ccc(CCNC[C@H](O)c3ccc(O)c(NC=O)c3)cc2)ccc1O)C(C)C [Example 13] .
Data returned: 9.42

Data request: Fill in reported pKi for this entry: CC(C)N(CC[C@H](c1ccccc1)c1cc(CCCCOCCCCCCNC[C@H](O)c2ccc(O)c(NS(C)(=O)=O)c2)ccc1O)C(C)C [Example 6]
Data returned: 8.62

Data request: Let me know recorded pKi for CC(C)N(CC[C@H](c1ccccc1)c1cc(CCCCCCCCNC[C@H](O)c2ccc(O)c(NS(C)(=O)=O)c2)ccc1O)C(C)C [Example 16] , thanks.
Data returned: 8.70

Data request: Specify measured pKi for CC(C)N(CC[C@H](c1ccccc1)c1cc(CCCCOc2ccc(CCNC[C@H](O)c3ccc(O)c(NS(C)(=O)=O)c3)cc2)ccc1O)C(C)C [Example 3] .
Data returned: 8.85

Data request: Recall and state the measured pKi for CC(C)N(CC[C@H](c1ccccc1)c1cc(CCCCOc2ccc(CCNC[C@H](O)c3ccc(O)c(NC=O)c3)cc2)ccc1O)C(C)C [Example 7] .
Data returned: 8.68

Further cases:
Data request: Check the records and state pKi for CC(C)N(CC[C@H](c1ccccc1)c1cc(CCCOc2ccc(CCNC[C@H](O)c3ccc(O)c(NS(C)(=O)=O)c3)cc2)ccc1O)C(C)C [Example 2]
Data returned: 8.96

Data request: In one line, give reported pKi of the entry CC(C)N(CC[C@H](c1ccccc1)c1cc(CCCCCCCCCCNC[C@H](O)c2ccc(O)c(NS(C)(=O)=O)c2)ccc1O)C(C)C [Example 1] .
Data returned: 8.47

###

# System Name: human muscarinic M3 receptor (Homo sapiens, UniProt P20309)
# Test Name: Whole cell β-lactamase reporter assay in CHO cells expressing the hM3 receptor (antagonist activity)
# Settings: 80 nM carbamyl choline, IC50 converted to Ki by Cheng-Prusoff
Measurement Kind: pKi
Would you please state pKi, meaning minus log10 of the concentration in mol/L, as a bare number?

Some solved cases for reference:
Data request: State its pKi for this compound: CC(C)N(CC[C@H](c1ccccc1)c1cc(CCOc2ccc(CC(C)(C)NC[C@H](O)c3ccc(O)c4[nH]c(=O)ccc34)cc2)ccc1O)C(C)C [Example 20]
Data returned: 9.41

Data request: Report measured pKi; entry is CC(C)N(CC[C@H](c1ccccc1)c1cc(CCOc2ccc(CCNC[C@H](O)c3ccc(O)c4[nH]c(=O)ccc34)cc2)ccc1O)C(C)C [Example 14]
Data returned: 9.12

Data request: Report pKi for CC(C)N(CC[C@H](c1ccccc1)c1cc(OCCCCCCCNC[C@H](O)c2ccc(O)c(NS(C)(=O)=O)c2)ccc1O)C(C)C [Example 4]
Data returned: 9.55

Data request: Identify measured pKi associated with CC(C)N(CC[C@H](c1ccccc1)c1cc(CCOc2ccc(CCNC[C@H](O)c3cc(O)cc(O)c3)cc2)ccc1O)C(C)C [Example 12]
Data returned: 9.59

Lab note: next compound to report on.
Data request: Given the compound CC(C)N(CC[C@H](c1ccccc1)c1cc(CCCCOc2ccc(CCNC[C@H](O)c3cc(O)cc(O)c3)cc2)ccc1O)C(C)C [Example 9] , write its reported pKi.
Data returned: 8.96
